system: NCI-H69; experiment: Rf is the resistance factor and is the ratio of the IC50 on the resistant cell line over the IC50 on the parental H69/P cell line; format: functional, Homo sapiens
Lab note: anything with Rf below 2 is marked yes (1); values at 2 or higher are marked no (0).

Here are 5 molecules together with their reported answers.
In [3]: df
Out[3]:
                                   molecule  label_class
0  COc1cccc2c1ccc1nc3cccc(C(=O)NCC(O)CN)c3nc12 (stereo not drawn)       no (0)
1  COc1cccc2c1ccc1nc3ccc(O)c(C(=O)NCCN(C)C)c3nc12      yes (1)
2  COC(=O)C(CN(C)C)NC(=O)c1cccc2nc3ccc4c(OC)cccc4c3nc12 (stereo not drawn)       no (0)
3  Cc1cccc2c1ccc1nc3cccc(C(=O)NCCN(C)C)c3nc12      yes (1)
4  CC(=O)Oc1cccc2c1ccc1nc3cccc(C(=O)NCCN(C)C)c3nc12       no (0)

Identify whether the molecule `COc1cccc2c1ccc1nc3cccc(C(=O)NCCN4CCOCC4)c3nc12` records Rf below 2.
yes (1)

Consider the molecule `CN(C)CCNC(=O)c1cccc2nc3ccc4cc(O)ccc4c3nc12` . Is its Rf strictly less than 2?
yes (1)

Does `CN(C)CCNC(=O)c1cccc2nc3ccc4c(Br)cccc4c3nc12` have Rf strictly under 2?
no (0)

Field: below-cutoff. Rule: recorded Rf strictly less than 2. Subject: `CN(C)CCNC(=O)c1cccc2nc3ccc4c(Cl)cccc4c3nc12`
yes (1)

Does this molecule meet the criterion Rf < 2? COc1cccc2c1ccc1nc3cccc(C(=O)NC(Cc4ccccc4)CN(C)C)c3nc12 (stereo not drawn)
yes (1)

Does `CN(C)CCNC(=O)c1cccc2nc3ccc4c(OCCCC#N)cccc4c3nc12` have Rf strictly under 2?
yes (1)

Consider `C#CCOc1cccc2c1ccc1nc3cccc(C(=O)NCCN(C)C)c3nc12` . Does its Rf lie strictly below 2?
yes (1)

Record `COc1ccc2nc3ccc4c(OC)cccc4c3nc2c1C(=O)NCCN(C)C` : is its Rf strictly below 2?
yes (1)
